Below, each entry is listed with its recorded ka.
Target: htau40 (Homo sapiens, UniProt P10636)
Sequence (P10636 1-441 isoform P10636-8): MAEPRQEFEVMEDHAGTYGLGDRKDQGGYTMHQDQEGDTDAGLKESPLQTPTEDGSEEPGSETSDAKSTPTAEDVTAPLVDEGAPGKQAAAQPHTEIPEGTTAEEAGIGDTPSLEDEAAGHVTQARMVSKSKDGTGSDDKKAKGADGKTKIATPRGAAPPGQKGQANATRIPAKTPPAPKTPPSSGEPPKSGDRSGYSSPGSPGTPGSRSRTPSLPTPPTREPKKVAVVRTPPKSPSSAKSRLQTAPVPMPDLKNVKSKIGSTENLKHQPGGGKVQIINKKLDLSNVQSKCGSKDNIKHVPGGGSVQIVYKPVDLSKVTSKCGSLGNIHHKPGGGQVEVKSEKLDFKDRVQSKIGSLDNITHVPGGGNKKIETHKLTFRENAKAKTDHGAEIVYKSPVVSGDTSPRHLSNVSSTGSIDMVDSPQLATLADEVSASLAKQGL
Test: Biacore X100 SPR of anti-tau mAbs on immobilised htau40
Assay type: binding
Conditions: newly converted mAbs, Table 25 (Example 28), hT40

molecule	ka (M⁻¹ s⁻¹)
3bD11 (protein) scFv: RVRLQGSGPSLVKPSQTLSLTCTVSGFSFDSYYVGWVRQAPGKALEWLGNIYSTGRAFYNPALKSRLSITRDTSKSQVSLSVSSVTIEDTALYYCVRGSYYHGGGNGMVDFFDYWSPGLLVTVSSEGKSSGASGESKVDDQVVRTQPSSVSGSLGQRVSITCSGSSSNVGYGNYVGWFQQVPGSAPKLLIYAATSRASGVPDRFSGSRSGNTATLTIDSLQAEDEADYYCSSYQRGNTGVFGSGTRLTVLG	2.671e+06
MD9/MoD9: anti-tau clone, SEQ ID NO: 373 (protein, MD9 amino acid sequence) scFv: QVRLQESGPSLVKSSQTLSLTCTVSGFSLTRESIAWVRQAPGKVPEWLGGVGIDGTSYYSPALKSRLSITRDTSKSQASLSLSSVATEDTAMYYCARNYIDFEYWGPGLLVTVSSEGKSSGASGESKVDDQAVLTQLSSVSGSLGQRISITCSGSSSNVGIYDVSWFQQLPGSGLRTVIYGTNNRPSGVPDRFSGSRSGNTATLTISSLQSEDEAIYYCAAGDSSTIAVFGSGTRLTVLG	66200
3aG3: anti-tau clone, SEQ ID NO: 424 (protein, 3aG3 amino acid sequence) scFv: QVQLQESGPSLVKPSQTLSLTCTVSGFSLSSNGVGWVRQAPGKVPEWVGDISSSGKAYANPALKSRLSITRDTAKTQVFLSLSSVTTEDTAVYYCVRCRDGGVSYGYDIDYWGPGLLVTVSSEGKSSGASGESKVDDQAVLTQPPSVSGSPGQRVSITCSGSSSNIGGGNYLSWFQQVPGSAPKLLIYGATSRASGVPDRFSGSRSGNTATLTISSLQAEDEADYYCASFDTSSGGIFGAGTRLTVLG	1.532e+07
3bG4: anti-tau clone, SEQ ID NO: 425 (protein, 3bG4 amino acid sequence) scFv: QVQLQESGPSLVKPSQTLSLTCTISGFSLISNGVGWVRQAPGKVPEWVGDIASSGKAYSNPALKSRLSITRDTSKSQVSLSLRSVTTEDTAVYYCVRCRDGGVTYGYDIDYWGPGLLVTVSSEGKSSGASGESKVDDQAVLTQPSSVSKSLGQSVSITCSGSTSNVGSGNDVSWFQQVPGSAPKLLFYGATNRASGVPDRFSGSRSGNTATLTITSLQAEDEADYYCGSYDSNSGGIFGSGTRLTVLG	4.54e+06
3aH6: anti-tau clone, SEQ ID NO: 423 (protein, 3aH6 amino acid sequence) scFv: QVQLQESGPSLVKPSQTLSLTCTVSGFSLSSNGVGWVRQAPGKVPEWLGDISSVGKKYANPALKSRLSFTRDTSKSQVSLSLSSVTTEDTAVYYCVKCRDGGVTYGYDIDYWGPGLLVTASSEGKSSGASGESKVDDQAVVTQPSSVSGSLGQSVSITCSGSSGNVGYGDYVSWFQQFHGSAPKLLIYGATNLASGVPARFSGSRSGNTATLTISSLHAEDEADYYCASYDSSSGGVFGSGTRLTVLG	3.128e+06
